Overview of reported Total Binding at 37° C. across a group of molecules:
Molecular target: T1, MSR1 on differentiated THP-1 cells (Homo sapiens, UniProt P21757)
T1 construct: endogenous in cells; host or cells: THP-1 cells differentiated with PMA
T1 sequence (P21757 1-451): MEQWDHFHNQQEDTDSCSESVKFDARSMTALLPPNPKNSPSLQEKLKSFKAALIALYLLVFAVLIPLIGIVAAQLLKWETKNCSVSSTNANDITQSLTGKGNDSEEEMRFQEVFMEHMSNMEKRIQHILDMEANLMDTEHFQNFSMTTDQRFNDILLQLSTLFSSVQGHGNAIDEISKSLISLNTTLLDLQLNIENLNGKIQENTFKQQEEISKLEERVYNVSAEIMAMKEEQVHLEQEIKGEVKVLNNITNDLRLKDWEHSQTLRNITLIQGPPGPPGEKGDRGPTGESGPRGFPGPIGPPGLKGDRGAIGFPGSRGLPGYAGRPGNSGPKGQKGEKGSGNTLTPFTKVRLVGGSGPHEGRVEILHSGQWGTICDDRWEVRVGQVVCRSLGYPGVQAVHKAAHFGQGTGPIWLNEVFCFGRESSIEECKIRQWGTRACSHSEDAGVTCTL
Test: Binding and internalization of cell-surface expressed MSR1 in differentiated THP-1 cells
Format: cell-based
Conditions: 10 μg/mL antibody, 37° C.
outcomeMeasure: Total Binding at 37° C.

• H1H27747P-N297Q (antibody, V domains shown) VH: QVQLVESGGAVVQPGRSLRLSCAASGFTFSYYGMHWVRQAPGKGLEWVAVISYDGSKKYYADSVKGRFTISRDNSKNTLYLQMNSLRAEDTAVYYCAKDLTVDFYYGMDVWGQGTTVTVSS VL: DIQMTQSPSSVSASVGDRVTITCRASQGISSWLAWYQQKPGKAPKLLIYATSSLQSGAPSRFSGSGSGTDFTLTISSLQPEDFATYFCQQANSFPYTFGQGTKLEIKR = 5917858
• H1H27729P-N297Q: anti-MSR1 antibody "made with an N297Q single point mutation in human Fcγ portion" (antibody, V domains shown) VH: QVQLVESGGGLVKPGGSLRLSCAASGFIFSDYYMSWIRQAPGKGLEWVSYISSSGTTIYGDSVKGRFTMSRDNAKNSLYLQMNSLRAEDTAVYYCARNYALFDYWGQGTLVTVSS VL: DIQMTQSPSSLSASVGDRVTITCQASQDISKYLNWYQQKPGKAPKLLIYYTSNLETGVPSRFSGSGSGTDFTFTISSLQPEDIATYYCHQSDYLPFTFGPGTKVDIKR = 6607625
• H1H27739P-N297Q: anti-MSR1 antibody "made with an N297Q single point mutation in human Fcγ portion" (antibody, V domains shown) VH: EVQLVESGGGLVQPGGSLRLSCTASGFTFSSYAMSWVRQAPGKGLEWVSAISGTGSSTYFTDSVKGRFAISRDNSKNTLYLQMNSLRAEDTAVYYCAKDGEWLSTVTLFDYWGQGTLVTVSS VL: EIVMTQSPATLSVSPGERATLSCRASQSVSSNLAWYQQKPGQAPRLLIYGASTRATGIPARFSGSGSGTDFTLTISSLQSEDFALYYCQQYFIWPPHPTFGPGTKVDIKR = 5608380
